- assayTarget: PDE4B (aa 152-484, Uniprot ID Q07343) (Homo sapiens (Human), UniProt Q07343)
- Sequence (Q07343 324-656): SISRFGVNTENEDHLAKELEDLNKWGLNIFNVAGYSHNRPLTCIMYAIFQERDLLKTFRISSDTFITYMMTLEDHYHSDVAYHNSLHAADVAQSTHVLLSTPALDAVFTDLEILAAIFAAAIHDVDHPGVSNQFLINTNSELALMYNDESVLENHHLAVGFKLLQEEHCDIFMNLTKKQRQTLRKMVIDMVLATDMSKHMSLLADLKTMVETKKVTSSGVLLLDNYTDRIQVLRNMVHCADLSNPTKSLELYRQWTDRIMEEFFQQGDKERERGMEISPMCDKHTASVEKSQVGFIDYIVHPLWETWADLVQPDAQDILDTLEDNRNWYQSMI
- testSummary: PDE4 SPA assay (scintillation proximity assay)
- Format: biochemical
- setupConditions: read-out: PDE4B2 IC50
recordedEndpoint: IC50 (nM)

Worked examples, 3 compounds total:
{"compound": "COc1ccc(-c2cncc(C3COB(O)C3)c2)c(C#N)c1OC (centres unmarked)", "resultUnits": "nM", "IC50": 3.24}
{"compound": "CCOc1cc(-c2nc(OC)cc(C3COB(O)C3)n2)ccc1OC (centres unmarked) [Example 185]", "resultUnits": "nM", "IC50": 3.38}
{"compound": "CCOc1cc(-c2cncc(C3COB(O)C3)c2)cc(F)c1OC (single isomer, unassigned)", "resultUnits": "nM", "IC50": 1.08}

(a) CCOc1cc(-c2cncc(C3COB(O)C3)c2)c(Cl)cc1OC (centres unmarked)
(b) CCCOc1nc(-c2cncc(C3COB(O)C3)c2)c(F)cc1OC (single isomer, unassigned; enantiomer 2)
(c) COc1ccc(-c2nc(C3COB(O)C3)ns2)cc1OC1CC1 (single isomer, unassigned; enantiomer 2)
Arrange the 3 entries by IC50 so the values rise. Thanks in advance for listing the labels in the requested order.
b, c, a

(1) CCCOc1cc(-c2cc(C3COB(O)C3)cc(CO)n2)ccc1OC (centres unmarked)
(2) CCOc1nc(-c2cccc(C3=CB(O)OC3)c2)ccc1OC
Rank 1 against 2 by their IC50 values and give the higher one. Lab log: write the label of the selected item as the result.
1
(1: 4.29 nM, 2: 1.11 nM)

meta.source: patent US11559538B2
